Listed here: items and their measured response (% ZapD in pellet).
B1: FtsZ (purified, WT) [E. coli] / ZapD (purified) [E. coli] (parent)
chain 1: MQTQVLFEHPLNEKMRTWLRIEFLIQQLTVNLPIVDHAGALHFFRNVSELLDVFERGEVRTELLKELDRQQRKLQTWIGVPGVDQSRIEALIQQLKAAGSVLISAPRIGQFLREDRLIALVRQRLSIPGGCCSFDLPTLHIWLHLPQAQRDSQVETWIASLNPLTQALTMVLDLIRQSAPFRKQTSLNGFYQDNGGDADLLRLNLSLDSQLYPQISGHKSRFAIRFMPLDTENGQVPERLDFELACC
chain 2: MFEPMELTNDAVIKVIGVGGGGGNAVEHMVRERIEGVEFFAVNTDAQALRKTAVGQTIQIGSGITKGLGAGANPEVGRNAADEDRDALRAALEGADMVFIAAGMGGGTGTGAAPVVAEVAKDLGILTVAVVTKPFNFEGKKRMAFAEQGITELSKHVDSLITIPNDKLLKVLGRGISLLDAFGAANDVLKGAVQGIAELITRPGLMNVDFADVRTVMSEMGYAMMGSGVASGEDRAEEAAEMAISSPLLEDIDLSGARGVLVNITAGFDLRLDEFETVGNTIRAFASDNATVVIGTSLDPDMNDELRVTVVATGIGMDKRPEITLVTNKQVQQPVMDRYQQHGMAPLTQEQKPVAKVVNDNAPQTAKEPDYLDIPAFLRKQAD

variants of: B1; assay: co-sedimentation assay, SDS-PAGE quantification; conditions: with ZapD (purified) [E. coli]; 5 µM FtsZ with ZapD at 1:0.2; 50 mM K-MOPS pH 6.5, 50 mM KCl, 2.5 mM MgCl2, 1 mM GTP, 3 µM BSA; read off a plot
Form field (numeric): enter value without unit.

Here's what some known entries look like.
sequence change	numeric result
chain 2 D383K	71
chain 2 K380Q A382Q D383Q	42
chain 2 K380D	14

Now examine the next entry.
Enquiry: Record request: response (% ZapD in pellet) value, item chain 2 K380R D383R
Return: 16
